Let's look at some compounds and their measured activity, percent of control.
# Assay summary: qHTS profiling for inhibitors of Plasmodium falciparum (DD2) proliferation (AID 743323)
# Condition parameters: lower = more inhibition; at 28.7 µM (top of the series)
Quantity name: activity, percent of control (%)

{"Structure notation": "Cc1nc(N)sc1-c1ccnc(Nc2ccc(N3CCOCC3)cc2)n1", "Observed measurement": 7.68}
{"Structure notation": "Clc1ccc(-c2nc3sccn3c2C=NOCc2ccc(Cl)c(Cl)c2)cc1", "Observed measurement": 101}
{"Structure notation": "c1ccc2c(-c3cnn4cc(-c5ccc(N6CCNCC6)cc5)cnc34)ccnc2c1", "Observed measurement": -0.291}

---

# Assay summary: qHTS of pediatric cancer cell lines to identify multiple opportunities for drug repurposing: Primary screen for MG 63 (6-TG R) cells (AID 1347105); further: nearly all actives have a fitted effect of over 50% in size
# Condition parameters: MG 63 (6-TG R) viability, CellTiter-Glo, 48 h; series mostly up to 46 µM
Records with an inconclusive call do not appear. Activity calls are given as the source filed them. The call rests on the fitted dose curve; in most records, active means well fitted cell-killing curve with a large enough effect; inconclusive means small, poorly fitted or top-dose-only effect; inactive means no such curve, though single readings can be large or run the other way.
Classes used: active, inactive

{"Structure notation": "COc1cc2ncnc(Nc3ccc(F)c(Cl)c3)c2cc1OCCCN1CCOCC1", "Label class": "active"}
{"Structure notation": "Cc1[nH]c(C=C2C(=O)Nc3ccc(S(=O)(=O)Cc4c(Cl)cccc4Cl)cc32)c(C)c1C(=O)N1CCC[C@H]1CN1CCCC1", "Label class": "active"}
{"Structure notation": "O=c1cc(N2CCOCC2)oc2c(-c3cccc4c3sc3ccccc34)cccc12", "Label class": "active"}
{"Structure notation": "COc1ccc(-c2cc(=O)c3c(O)cc(O)cc3o2)cc1O", "Label class": "inactive"}
{"Structure notation": "CC(=O)CCCCn1c(=O)c2c(ncn2C)n(C)c1=O", "Label class": "inactive"}

---

Let's look at some compounds and their measured parasite growth remaining, % of DMSO control (lower = more inhibition).
# Assay summary: qHTS profiling of the MIPE4 collection as inhibitors of Plasmodium falciparum (DD2) proliferation (AID 743345)
# Condition parameters: P. falciparum Dd2 in erythrocytes, SYBR Green DNA, 72 h; at 28.5 µM (top of the series) unless noted
# Procedure: Plasmodium falciparum is a virulent malarial parasite that kills 1-2 million people worldwide each year. […] Because mature erythrocytes lack DNA, only Plasmodium-derived DNA is detected. The SYBR Green viability assay was adapted from a method described previously (Plouffe et al., 2008). […] The following morning, fluorescence intensity at 485(14) nm excitation and 535(25) nm emission wavelengths was measured on an EnVision (Perkin Elmer) plate reader. […]
Quantity name: parasite growth remaining, % of DMSO control (lower = more inhibition)

{"Structure notation": "Clc1ccc(-c2nc3sccn3c2C=NOCc2ccc(Cl)c(Cl)c2)cc1", "Observed measurement": "51.5%"}
{"Structure notation": "C[C@@H](O)[C@H]1C(=O)N2C(C(=O)O)=C(S[C@@H]3CN[C@H](C(=O)N(C)C)C3)[C@H](C)[C@H]12", "Observed measurement": "102% [at 9.64 µM]"}
{"Structure notation": "N[C@@]1(C(=O)O)CS(=O)(=O)[C@H]2[C@H](C(=O)O)[C@H]21", "Observed measurement": "88.4%"}
{"Structure notation": "Cc1ccc([C@@H]2O[C@H](CO)[C@@H](O)[C@H](O)[C@@H]2O)cc1Cc1ccc(-c2ccc(F)cc2)s1", "Observed measurement": "118%"}
{"Structure notation": "Cc1ccn(-c2ccc(-c3ncco3)cc2)c(=O)c1-c1ccc2nc(N)ncc2c1", "Observed measurement": "78.6%"}
{"Structure notation": "CC(=Cc1ccccc1)C=C1SC(=S)N(CC(=O)O)C1=O", "Observed measurement": "102%"}
{"Structure notation": "COc1cccc([C@@H](C)NCCCc2ccccc2Cl)c1", "Observed measurement": "78.7%"}

---

# Assay summary: qHTS of pediatric cancer cell lines to identify multiple opportunities for drug repurposing: Confirmatory screen for A673 cells (AID 1347110);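 further: cells exposed to compound for 48 h before the viability read; nearly all actives have a fitted effect of over 65% in size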
# Condition parameters: A673 Ewing sarcoma cell viability; series mostly up to 45.9 µM
Records with an inconclusive call do not appear. Calls of active or inactive are those of the source. The call rests on the fitted dose curve; in most records, active means well fitted cell-killing curve with a large enough effect; inconclusive means small, poorly fitted or top-dose-only effect; inactive means flat fitted curve, though single readings scatter.
Classes used: active, inactive

{"Compound": "COc1ncc(-c2ccc3nccc(-c4ccnnc4)c3c2)cc1NS(=O)(=O)c1ccc(F)cc1F", "Label class": "active"}
{"Compound": "CCc1ccc(OCc2ccccc2C(=O)Nc2ccc3nc(C)cc(N)c3c2)cc1", "Label class": "active"}
{"Compound": "CC[C@]1(O)C[C@@H]2CN(CCc3c([nH]c4ccccc34)[C@@](C(=O)OC)(c3cc4c(cc3OC)N(C=O)[C@@H]3C45CCN4CC=C[C@](CC)([C@H]45)[C@@H](OC(C)=O)[C@]3(O)C(=O)OC)C2)C1 (stereo not given in full)", "Label class": "inactive"}
{"Compound": "CNC1CCC(N(Cc2cccc(-c3ccncc3)c2)C(=O)c2sc3c(F)ccc(F)c3c2Cl)CC1 (stereo not given)", "Label class": "active"}
{"Compound": "CC(=NNC(=S)N1CCC1)c1ccccn1", "Label class": "active"}

---

# Assay summary: Quantitative High-Throughput drug screen in 47 multiple myeloma cell lines against the NCATS MIPE library collection: OPM1_PLB cell viability assay (AID 1918989); further: nearly all actives have a fitted effect of over 40% in size
# Condition parameters: CellTiter-Glo, 48 h; series mostly up to 45.8 µM
# Description: PI: Beverly A. Mock Ph.D. Laboratory of Cancer Biology and Genetics, Center for Cancer Research, National Cancer Institute, National Institute of Health, Bethesda, Maryland […] 5; Detector; 425V; Luminescence; Viewlux PerkinElmer. […] 1. […] Briefly, the corresponding myeloma cell lines were screened in 1,536-well plates with 500 cells, 5-uL per well for inhibition of cell viability (assessed by measuring ATP levels with CellTiterGlo). […]
Records with an inconclusive call do not appear. The source made the active and inactive calls. Calls come from the whole dose curve; as a rule, active = well fitted cell-killing curve with a large enough effect; inconclusive = small, poorly fitted or top-dose-only effect, or effect the other way; inactive = no such curve, though single readings can be large or run the other way.
Classes used: label 1 for active, label 0 for inactive

{"Compound": "Cn1c(N2CCCCS2(=O)=O)nc(C(=O)NCc2ccc(F)cc2)c(O)c1=O", "Label class": "label 0"}
{"Compound": "CC(C)(C)NC(=O)Nc1cccc(Nc2ncc(F)c(NC(C)(C)CO)n2)c1", "Label class": "label 1"}
{"Compound": "CC=C(C)C(=O)O[C@H]1C(C)=C[C@]23C(=O)[C@@H](C=C(CO)[C@@H](O)[C@]12O)[C@H]1[C@@H](C[C@H]3C)C1(C)C", "Label class": "label 1"}
{"Compound": "CC1(C)CCC(CN2CCN(c3ccc(C(=O)NS(=O)(=O)c4ccc(NCC5CCOCC5)c([N+](=O)[O-])c4)c(Oc4cnc5[nH]ccc5c4)c3)CC2)=C(c2ccc(Cl)cc2)C1", "Label class": "label 1"}
{"Compound": "CCc1ccc(C=C2SC(=S)NC2=O)cc1", "Label class": "label 0"}
{"Compound": "NC(=O)c1cccc2[nH]c(-c3ccc([C@H]4CCCN4)cc3F)nc12", "Label class": "label 1"}
{"Compound": "O=C(O)CCC1CCC(c2cc(F)ccc2F)(S(=O)(=O)c2ccc(Cl)cc2)CC1 (stereo not drawn)", "Label class": "label 1"}
{"Compound": "C[C@@H]1CCN(C(=O)CC#N)C[C@H]1N(C)c1ncnc2[nH]ccc12", "Label class": "label 0"}

---

# Assay summary: Quantitative High-Throughput drug screen in 47 multiple myeloma cell lines against the NCATS MIPE library collection: KMS28BM_JCRB cell viability assay (AID 1919874); further: nearly all actives have a fitted effect of over 35% in size
# Condition parameters: CellTiter-Glo ATP, 48 h; series mostly up to 45.8 µM
Records with an inconclusive call do not appear. The source made the active and inactive calls. Calls follow the shape of the dose curve; as a rule, active = well fitted cell-killing curve with a large enough effect; inconclusive = small, poorly fitted or top-dose-only effect, or effect the other way; inactive = no such curve, though single readings can be large or run the other way.
Classes used: active, inactive

{"Structure notation": "O=c1c(-c2ccc(O)cc2)coc2cc(O[C@@H]3O[C@H](CO)[C@H](O)[C@H](O)[C@H]3O)ccc12", "Label class": "inactive"}
{"Structure notation": "CCc1ccc(OCc2ccccc2C(=O)Nc2ccc3nc(C)cc(N)c3c2)cc1", "Label class": "active"}
{"Structure notation": "COC[C@@H](c1ccc(C(F)(F)F)cc1)N1CCN(C2(C)CCN(C(=O)c3c(C)ncnc3C)CC2)C[C@H]1C", "Label class": "inactive"}
{"Structure notation": "COc1ccc(-c2coc3cc(O)cc(O)c3c2=O)cc1", "Label class": "inactive"}
{"Structure notation": "Cc1cnc(C(=O)O)c[n+]1[O-]", "Label class": "inactive"}
{"Structure notation": "COc1ccc(-c2nc(N3CCOCC3)c3sc(CN(C)c4ncc(C(=O)NO)cn4)cc3n2)cn1", "Label class": "inactive"}

---

# Assay summary: Quantitative High-Throughput drug screen in 47 multiple myeloma cell lines against the NCATS MIPE library collection: OCIMY1_PLB cell viability assay (AID 1918979); further: nearly all actives have a fitted effect of over 35% in size;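 on viability: 100% = DMSO-only wells and 0% = cell-free media-only wells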
# Condition parameters: OCI-MY1 myeloma viability, CellTiter-Glo ATP, 48 h; series mostly up to 45.8 µM
Records with an inconclusive call do not appear. Activity calls are given as the source filed them. Calls follow the shape of the dose curve; as a rule, active = well fitted cell-killing curve with a large enough effect; inconclusive = small, poorly fitted or top-dose-only effect, or effect the other way; inactive = no such curve, though single readings can be large or run the other way.
Classes used: yes (1) (active), no (0) (inactive)

{"Compound": "COc1ccc(-c2oc3c(CC=C(C)C)c(OC4O[C@H](CO)[C@@H](O)[C@H](O)[C@@H]4O)cc(O)c3c(=O)c2OC2O[C@@H](C)[C@H](O)[C@@H](O)[C@@H]2O)cc1 (stereo partly drawn)", "Label class": "yes (1)"}
{"Compound": "NS(=O)(=O)c1cccc2c1C(=O)c1cccc(O)c1C2=O", "Label class": "yes (1)"}
{"Compound": "NS(=O)(=O)c1ccc(NC2=CC(=O)c3ccccc3C2=O)cc1", "Label class": "no (0)"}
{"Compound": "COc1ccc2cc(-c3nc(-c4ccc(S(C)=O)cc4)[nH]c3-c3ccncc3)ccc2c1 (stereo not drawn)", "Label class": "no (0)"}
{"Compound": "CC=CC[C@@H](C)C(=O)[C@H]1C(=O)N[C@@H](C(C)C)C(=O)N(C)CC(=O)N(C)[C@@H](CC(C)C)C(=O)N[C@@H](C(C)C)C(=O)N(C)[C@@H](CC(C)C)C(=O)N[C@@H](C)C(=O)N[C@H](C)C(=O)N(C)[C@@H](CC(C)C)C(=O)N(C)[C@@H](CC(C)C)C(=O)N(C)[C@@H](C(C)C)C(=O)N1C", "Label class": "no (0)"}
{"Compound": "O=C1C[C@@H](c2ccc(O)cc2)Oc2cc(O)cc(O)c21", "Label class": "no (0)"}
{"Compound": "O=C(O)c1cc(O)c2c(c1)C(=O)c1cccc(O)c1C2=O", "Label class": "no (0)"}
{"Compound": "COc1cc2ncnc(-n3nc(-c4ccccn4)nc3N)c2cc1OC", "Label class": "no (0)"}
{"Compound": "COC[C@@H](c1ccc(C(F)(F)F)cc1)N1CCN(C2(C)CCN(C(=O)c3c(C)ncnc3C)CC2)C[C@H]1C", "Label class": "no (0)"}
{"Compound": "CC(=Cc1ccccc1)C=C1SC(=S)N(CC(=O)O)C1=O", "Label class": "no (0)"}
{"Compound": "CC#CCn1c(N2CCC[C@@H](N)C2)nc2c1c(=O)n(Cc1nc(C)c3ccccc3n1)c(=O)n2C", "Label class": "no (0)"}
{"Compound": "CC(C)C(=O)Oc1ccc(CO)cc1[C@H](CCN(C(C)C)C(C)C)c1ccccc1", "Label class": "no (0)"}
{"Compound": "COc1cc(O)c2c(c1)C(=O)c1cc(C)cc(O)c1C2=O", "Label class": "no (0)"}

// data source = PubChem BioAssay (NCATS)
